What activity coefficient was measured for each of the following?
# assay.method.text: activity coefficient (dimensionless); of the first substance listed, at infinite dilution; xn = mol fraction of the nth substance listed
# test.conditions: 313.15 K; Liquid; Chromatography; x1 = 0
Output spec: single numeric token, no unit.

Reported activity coefficient ( CC1CCCCC1 [methylcyclohexane] + CCCCCCn1cc[n+](C)c1.O=S(=O)([O-])C(F)(F)F ) = 14

Reported activity coefficient ( CCCCCCCC [octane] + CCCCCCn1cc[n+](C)c1.O=S(=O)([O-])C(F)(F)F ) = 34.5

Reported activity coefficient ( Cc1ccc(C)cc1 [1,4-dimethylbenzene] + CCCCCCn1cc[n+](C)c1.O=S(=O)([O-])C(F)(F)F ) = 2.84

Reported activity coefficient ( c1ccccc1 [benzene] + CCCCCCn1cc[n+](C)c1.O=S(=O)([O-])C(F)(F)F ) = 1.48

Reported activity coefficient ( Cc1cccc(C)c1 [1,3-dimethylbenzene] + CCCCCCn1cc[n+](C)c1.O=S(=O)([O-])C(F)(F)F ) = 2.88

Reported activity coefficient ( Cc1ccccc1 [toluene] + CCCCCCn1cc[n+](C)c1.O=S(=O)([O-])C(F)(F)F ) = 2.03

Reported activity coefficient ( CCc1ccccc1 [ethylbenzene] + CCCCCCn1cc[n+](C)c1.O=S(=O)([O-])C(F)(F)F ) = 2.94

Reported activity coefficient ( CCCCCCC [heptane] + CCCCCCn1cc[n+](C)c1.O=S(=O)([O-])C(F)(F)F ) = 26.7

Reported activity coefficient ( CCCCC [pentane] + CCCCCCn1cc[n+](C)c1.O=S(=O)([O-])C(F)(F)F ) = 14.6

Reported activity coefficient ( C1=CCCCC1 [cyclohexene] + CCCCCCn1cc[n+](C)c1.O=S(=O)([O-])C(F)(F)F ) = 6.2

Reported activity coefficient ( CCCCCCCCCC [decane] + CCCCCCn1cc[n+](C)c1.O=S(=O)([O-])C(F)(F)F ) = 357

Reported activity coefficient ( CCCCCCCCC [nonane] + CCCCCCn1cc[n+](C)c1.O=S(=O)([O-])C(F)(F)F ) = 44.6

Reported activity coefficient ( C=Cc1ccccc1 [styrene] + CCCCCCn1cc[n+](C)c1.O=S(=O)([O-])C(F)(F)F ) = 1.73

Reported activity coefficient ( CCCCCC [hexane] + CCCCCCn1cc[n+](C)c1.O=S(=O)([O-])C(F)(F)F ) = 21.2

Reported activity coefficient ( CC(C)CC(C)(C)C [2,2,4-trimethylpentane] + CCCCCCn1cc[n+](C)c1.O=S(=O)([O-])C(F)(F)F ) = 26.9

Reported activity coefficient ( Cc1ccccc1C [1,2-dimethylbenzene] + CCCCCCn1cc[n+](C)c1.O=S(=O)([O-])C(F)(F)F ) = 2.47

Reported activity coefficient ( C1CCCCC1 [cyclohexane] + CCCCCCn1cc[n+](C)c1.O=S(=O)([O-])C(F)(F)F ) = 10.9

====

What activity coefficient was measured for each of the following?
# assay.method.text: activity coefficient (dimensionless); of the first substance listed, at infinite dilution; xn = mol fraction of the nth substance listed
# test.conditions: 363.15 K; Liquid; Chromatography; x1 = 0
Output spec: single numeric token, no unit.

Reported activity coefficient ( CCc1ccccc1 [ethylbenzene] + CCCCCCn1cc[n+](C)c1.O=S(=O)([O-])C(F)(F)F ) = 3.27

Reported activity coefficient ( CCCCC [pentane] + CCCCCCn1cc[n+](C)c1.O=S(=O)([O-])C(F)(F)F ) = 13.9

Reported activity coefficient ( Cc1cccc(C)c1 [1,3-dimethylbenzene] + CCCCCCn1cc[n+](C)c1.O=S(=O)([O-])C(F)(F)F ) = 3.25

Reported activity coefficient ( c1ccccc1 [benzene] + CCCCCCn1cc[n+](C)c1.O=S(=O)([O-])C(F)(F)F ) = 1.65

Reported activity coefficient ( CCCCCC [hexane] + CCCCCCn1cc[n+](C)c1.O=S(=O)([O-])C(F)(F)F ) = 20.5

Reported activity coefficient ( CCCCCCC [heptane] + CCCCCCn1cc[n+](C)c1.O=S(=O)([O-])C(F)(F)F ) = 26.1

Reported activity coefficient ( C1=CCCCC1 [cyclohexene] + CCCCCCn1cc[n+](C)c1.O=S(=O)([O-])C(F)(F)F ) = 6.55

Reported activity coefficient ( CCCCCCCCC [nonane] + CCCCCCn1cc[n+](C)c1.O=S(=O)([O-])C(F)(F)F ) = 39.9
